Target: recombinant human AChE (Homo sapiens, UniProt P22303)
Construct: gift of Dr Florian Nachon (Armed Forces Biomedical Research Institute, Brétigny-sur-Orge, France)
Sequence (P22303 32-614): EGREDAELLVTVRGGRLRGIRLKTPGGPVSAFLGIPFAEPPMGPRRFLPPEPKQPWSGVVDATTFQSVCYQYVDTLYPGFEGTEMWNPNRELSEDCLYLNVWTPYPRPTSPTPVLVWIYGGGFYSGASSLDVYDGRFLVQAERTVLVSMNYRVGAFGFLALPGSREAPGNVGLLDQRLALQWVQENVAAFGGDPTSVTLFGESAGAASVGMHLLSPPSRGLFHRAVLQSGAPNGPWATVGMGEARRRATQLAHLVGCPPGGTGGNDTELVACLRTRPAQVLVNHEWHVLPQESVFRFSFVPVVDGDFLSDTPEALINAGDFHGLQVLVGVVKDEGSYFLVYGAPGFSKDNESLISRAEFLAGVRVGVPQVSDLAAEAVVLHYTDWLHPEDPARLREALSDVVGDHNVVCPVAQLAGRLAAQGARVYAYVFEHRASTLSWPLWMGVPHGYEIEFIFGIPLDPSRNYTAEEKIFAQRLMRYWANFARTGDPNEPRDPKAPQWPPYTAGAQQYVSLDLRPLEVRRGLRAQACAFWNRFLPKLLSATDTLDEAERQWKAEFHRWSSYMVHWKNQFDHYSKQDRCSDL
Assay: biochemical
Format: biochemical
Conditions: log (Ki/µM AChE); read-out: Y Measured 1 log(ki)Ache (converted)
Method: Acetylthiocholine (ATCh) and 5,5′-dithiobis(2-nitrobenzoic acid) (DTNB) were purchased from Sigma-Aldrich, St. Louis, MO, USA. ATCh was dissolved in water and DTNB in 0.1 M sodium phosphate buffer (pH 7.4). The 4-aminoquinilines were dissolved in DMSO and all further dilutions were made in water. […] Enzyme activities were measured spectrophotometrically using a slightly modified Ellman method, as described earlier. […]

# compound, targetOrSystem, Ki [µM]
rows = [
    ("CC(CCNCC12CC3CC(CC(C3)C1)C2)Nc1ccnc2cc(Cl)ccc12 (centres unmarked) [Compound 12]", "recombinant human AChE (Homo sapiens, UniProt P22303)", 0.56),
    ("CC(CCNCC12CC3CC(CC(C3)C1)C2)Nc1ccnc2cc(C(F)(F)F)ccc12 (centres unmarked) [Compound 13]", "recombinant human AChE (Homo sapiens, UniProt P22303)", 0.91),
    ("Clc1ccc2c(Nc3cccc(NCC45CC6CC(CC(C6)C4)C5)c3)ccnc2c1 [Compound 18]", "recombinant human AChE (Homo sapiens, UniProt P22303)", 8.99),
    ("CC(CCNCCC12CC3CC(CC(C3)C1)C2)Nc1ccnc2ccccc12 (centres unmarked) [Compound 16]", "recombinant human AChE (Homo sapiens, UniProt P22303)", 0.52),
    ("Clc1ccc2c(Nc3ccc(NCC45CC6CC(CC(C6)C4)C5)cc3)ccnc2c1 [Compound 17]", "recombinant human AChE (Homo sapiens, UniProt P22303)", 3.3),
]

====

Experiment: Reverse-phase thin-layer chromatographic lipophilicity (RF, RM0)
Type: physicochemical
Conditions: RP-18 silica; III = 70%Dioxane/25%H2O/5%HCl
Experimental: Chromatographic determination of lipophilicity Merck, Darmstadt, Germany). The mobile phase contained organic modifier (methanol, acetone or dioxane), water and hydrochloric acid. Methanol was varied in the range […] with an increment of 10%. […] before chromatogram development. The solvent developing distance was 4.5 cm. Detection of […] All experiments were performed at ambient temperature (22±2 °C). Retention parameters were calculated as previously described. […]
Checkbox rule: RF, Dioxane/Water/Hydrochloric acid (conc.), mobile phase III lower than 0.7 = T; RF, Dioxane/Water/Hydrochloric acid (conc.), mobile phase III not lower than 0.7 = F.

# molecule, discreteLabel
data = [
    ("Clc1ccc2c(NCCCCNCC34CC5CC(CC(C5)C3)C4)ccnc2c1 [Compound 3]", "F"),
    ("Clc1ccc2c(NCCCN3CCN(CCCNCC45CC6CC(CC(C6)C4)C5)CC3)ccnc2c1 [Compound 22]", "F"),
    ("Clc1ccc2c(NCCNCC34CC5CC(CC(C5)C3)C4)ccnc2c1 [Compound 1]", "F"),
    ("Clc1ccc2c(NCCCCN(CCC34CC5CC(CC(C5)C3)C4)CCC34CC5CC(CC(C5)C3)C4)ccnc2c1 [Compound 10]", "T"),
    ("Clc1ccc2c(Nc3cccc4c(NCCC56CC7CC(CC(C7)C5)C6)cccc34)ccnc2c1 [Compound 19]", "T"),
    ("Clc1ccc2c(NCCCCCN(CCC34CC5CC(CC(C5)C3)C4)CCC34CC5CC(CC(C5)C3)C4)ccnc2c1 [Compound 11]", "T"),
    ("Clc1ccc2c(N3CCN(CC45CC6CC(CC(C6)C4)C5)CC3)ccnc2c1 [Compound 20]", "F"),
    ("Clc1ccc2c(NCCCCCCNCC34CC5CC(CC(C5)C3)C4)ccnc2c1 [Compound 4]", "F"),
]
